Data credit: patent US9247759B2

Molecular target: UniProt P59537
Sequence (P59537 whole entry): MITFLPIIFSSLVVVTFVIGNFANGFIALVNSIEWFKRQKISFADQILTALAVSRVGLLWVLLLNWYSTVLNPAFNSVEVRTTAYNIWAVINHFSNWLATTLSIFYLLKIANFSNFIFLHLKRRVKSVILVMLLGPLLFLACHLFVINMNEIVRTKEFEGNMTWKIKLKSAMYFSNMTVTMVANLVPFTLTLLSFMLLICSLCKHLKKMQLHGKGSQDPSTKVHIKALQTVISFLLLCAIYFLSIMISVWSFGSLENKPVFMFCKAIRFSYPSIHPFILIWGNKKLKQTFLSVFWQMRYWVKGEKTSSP
Assay: hT2R panel inhibition, transient HEK293 G16g44, agonist Aristolochic Acid 25 nM
Type: cell-based
Conditions: HEK293, compound at 25 μM; receptor activated to EC80 with the corresponding agonist; read-out: screening result against bitter receptor 61
I'd appreciate it if you could supply inhibition at 25 µM values for the items below.

Ask: Give inhibition at 25 µM for the following compound: O=C(O)c1ccc(CN(Cc2ccccc2F)S(=O)(=O)c2ccccc2)cc1
Reply: > 80%

Ask: # return recorded inhibition at 25 µM for input CN(Cc1ccccc1)S(=O)(=O)c1ccc(C(=O)O)cc1
Reply: 20 to 40%

Ask: Give recorded inhibition at 25 µM. O=C(O)C1CCC(CN(Cc2ccc(F)cc2)S(=O)(=O)Cc2ccccc2)CC1 (centres unmarked)
Reply: > 80%

Ask: Output inhibition at 25 µM of CSc1ccc(CN(Cc2ccccc2)S(=O)(=O)c2ccc(C(=O)O)cc2)cc1
Reply: > 80%

Ask: Return reported inhibition at 25 µM. Input compound: O=C(O)c1ccc(CN(Cc2ccc(F)cc2)S(=O)(=O)c2ccc(O)cc2)cc1
Reply: > 80%

Ask: Please indicate inhibition at 25 µM recorded for COc1ccc(CN(Cc2ccccc2OC)S(=O)(=O)c2ccc(C(=O)O)cc2)cc1
Reply: > 80%

Ask: Identify measured inhibition at 25 µM associated with COc1cccc(CN(Cc2ccc(C(=O)O)cc2)S(=O)(=O)c2ccccc2)c1
Reply: > 80%

Ask: Report measured inhibition at 25 µM; entry is O=C(O)c1ccc(S(=O)(=O)N(Cc2ccccc2)Cc2cccc(C(=O)O)c2)cc1
Reply: 40 to 60%

Ask: Fill in reported inhibition at 25 µM for this entry: COc1cc(OC)c(CN(Cc2ccccc2)S(=O)(=O)c2ccc(C(=O)O)cc2)c(OC)c1
Reply: > 80%

Ask: For the compound COc1ccc(CN(Cc2ccc(C(=O)O)cc2)S(=O)(=O)c2ccccc2)cc1 , give its measured inhibition at 25 µM value.
Reply: > 80%

Ask: Supply inhibition at 25 µM value. Item: COc1ccccc1CN(Cc1ccc(C(=O)O)cc1)S(=O)(=O)c1ccc(O)cc1
Reply: > 80%

Ask: Tell me its inhibition at 25 µM given Cc1ccc(S(=O)(=O)N(Cc2ccc(F)cc2)CC2CCC(C(=O)O)CC2)cc1 (centres unmarked) as the entry.
Reply: > 80%

Ask: Give a short answer stating reported inhibition at 25 µM for COc1ccc(CN(Cc2ccccc2)S(=O)(=O)Cc2ccc(C(=O)O)cc2)cc1 .
Reply: 60 to 80%

Ask: Give reported inhibition at 25 µM value for COc1ccc(CN(Cc2ccccc2)S(=O)(=O)c2ccc(C(=O)O)cc2)cn1
Reply: > 80%

Ask: Supply measured inhibition at 25 µM of N#Cc1cccc(CN(Cc2ccccc2)S(=O)(=O)c2ccc(C(=O)O)cc2)c1 in your reply.
Reply: 20 to 40%

Ask: Please indicate inhibition at 25 µM recorded for COc1ccc(CN(Cc2ccncc2)S(=O)(=O)c2ccc(C(=O)O)cc2)cc1
Reply: 60 to 80%

Ask: Kindly indicate its recorded inhibition at 25 µM. Item: O=C(O)c1ccc(CN(Cc2cccc(F)c2)S(=O)(=O)c2ccccc2)cc1
Reply: > 80%
